System: TA98
experiment-description: Ames test, strain TA98
Type: cell-based
stated-conditions: 50 μg/dish
Reported TA98 −S9 values for the following compounds.

- structure-smiles-string: "O=c1c2cc(F)ccc2[se]n1-c1ccccn1"
  TA98 −S9: 89.00
- structure-smiles-string: "C/C(=N\\O)c1ccc(-n2[se]c3ccccc3c2=O)cc1"
  TA98 −S9: 45.33
- structure-smiles-string: "O=c1c2ccc(Cl)cc2[se]n1-c1ccncc1"
  TA98 −S9: 0
- structure-smiles-string: "O=c1c2cc(F)ccc2[se]n1-c1cccnc1"
  TA98 −S9: 71.33
- structure-smiles-string: "O=c1c2cc(Cl)ccc2[se]n1-c1ccccn1"
  TA98 −S9: 19.67

* * *

test-system: Na^+/Ca^2+ exchanger (Cavia porcellus, UniProt P48766)
Construct: endogenous in cells; host or cells: freshly isolated guinea pig ventricular myocytes
experiment-description: Na^+/Ca^2+ exchange current (INa—Ca), whole-cell patch clamp, intracellular Na^+ overload cell model
Format: cell-based, guinea pig
stated-conditions: screening of 22 candidate compounds

- compound: "O=c1c2cc(F)ccc2[se]n1-c1cccnc1"
  Inhibitory rate of inward INa—Ca (%): 42
- compound: "O=c1c2ccccc2[se]n1/C=C/C1N=CCN1 (stereo not drawn)"
  Inhibitory rate of inward INa—Ca (%): 34
- compound: "O=c1c2cc(F)ccc2[se]n1-c1ccccn1"
  Inhibitory rate of inward INa—Ca (%): 21
- compound: "O=c1c2ccccc2[se]n1-c1cccnc1"
  Inhibitory rate of inward INa—Ca (%): 17
- compound: "O=c1c2ccc(Cl)cc2[se]n1-c1ccccn1"
  Inhibitory rate of inward INa—Ca (%): 57
- compound: "O=c1c2cc(Cl)ccc2[se]n1-c1cccnc1"
  Inhibitory rate of inward INa—Ca (%): 14

* * *

test-system: Na^+/Ca^2+ exchanger (Cavia porcellus, UniProt P48766)
Construct: endogenous in cells; host or cells: freshly isolated guinea pig ventricular myocytes
experiment-description: Na^+/Ca^2+ exchange current (INa—Ca), whole-cell patch clamp, intracellular Na^+ overload cell model
Type: cell-based, guinea pig
Set-up: concentration or dose not given beside the values
stated-conditions: screening of 22 candidate compounds
satisfied if Inhibitory rate of outward INa—Ca (%) is below 10%. not satisfied if not; exact matches included in not satisfied.

- molecule: "O=c1c2cc(O)ccc2[se]n1-c1ccccc1"
  group: "satisfied"
- molecule: "O=c1c2cc(Cl)ccc2[se]n1-c1cccnc1"
  group: "not satisfied"
- molecule: "O=c1c2cc(F)ccc2[se]n1-c1ccccc1"
  group: "not satisfied"
- molecule: "CCCCC1OC(=O)c2cccc(-n3[se]c4ccccc4c3=O)c21 (stereo not shown)"
  group: "not satisfied"
- molecule: "O=c1c2cc(O)ccc2[se]n1-c1ccccn1"
  group: "not satisfied"
- molecule: "O=c1c2ccccc2[se]n1Cc1ccco1"
  group: "satisfied"
- molecule: "O=c1c2ccccc2[se]n1-c1cccc2cccnc12"
  group: "not satisfied"
- molecule: "O=c1c2ccccc2[se]n1-c1cccnc1"
  group: "not satisfied"
- molecule: "O=c1c2cc(Cl)ccc2[se]n1-c1ccccc1"
  group: "not satisfied"
- molecule: "O=c1c2ccccc2[se]n1Cc1ccccn1"
  group: "satisfied"
- molecule: "O=c1c2ccc(Cl)cc2[se]n1-c1ccccn1"
  group: "not satisfied"

* * *

test-system: Na^+/Ca^2+ exchanger (Cavia porcellus)
Construct: endogenous in cells; host or cells: freshly isolated guinea pig ventricular myocytes
experiment-description: Na^+/Ca^2+ exchange current (INa—Ca), whole-cell patch clamp, intracellular Na^+ overload cell model
Assay type: cell-based, guinea pig
Parameters: concentration or dose not given beside the values
stated-conditions: Example 1 table, myocardial cell

- structure-smiles-string: "O=c1c2cc(F)ccc2[se]n1-c1ccncc1"
  output-unit: "%"
  Inhibitory rate of inward INa—Ca (%): 57
- structure-smiles-string: "O=c1c2cc(F)ccc2[se]n1-c1cccnc1"
  output-unit: "%"
  Inhibitory rate of inward INa—Ca (%): 42
- structure-smiles-string: "C/C(=N\\O)c1ccc(-n2[se]c3ccccc3c2=O)cc1"
  output-unit: "%"
  Inhibitory rate of inward INa—Ca (%): 43
- structure-smiles-string: "O=c1c2cc(Cl)ccc2[se]n1-c1ccncc1"
  output-unit: "%"
  Inhibitory rate of inward INa—Ca (%): 14
- structure-smiles-string: "O=c1c2cc(Cl)ccc2[se]n1-c1ccccn1"
  output-unit: "%"
  Inhibitory rate of inward INa—Ca (%): 44
- structure-smiles-string: "O=c1c2cc(F)ccc2[se]n1-c1ccccn1"
  output-unit: "%"
  Inhibitory rate of inward INa—Ca (%): 21
- structure-smiles-string: "O=c1c2ccc(Cl)cc2[se]n1-c1ccncc1"
  output-unit: "%"
  Inhibitory rate of inward INa—Ca (%): 28

* * *

System: TA102
experiment-description: Ames test, strain TA102
Assay type: cell-based
stated-conditions: 500 μg/dish
Method: To assess the mutagenic effects of 5 compounds (IMM-004; IMM-065; IMM-127; IMM-128; IMM-313), the Ames test was performed in 4 strains (TA97; TA98; TA100; TA102). The experiment was conducted with compounds at 4 concentration levels (0.5, 5, 50 and 500 μg/dish). […]
Reported TA102 +S9 values for the following compounds.
readout-type: TA102 +S9

- compound: "O=c1c2cc(Cl)ccc2[se]n1-c1ccccn1 [IMM-004]"
  test-system: "TA102"
  recorded-measurement: 284.00
- compound: "O=c1c2cc(F)ccc2[se]n1-c1ccccn1 [IMM-127]"
  test-system: "TA102"
  recorded-measurement: 233.33
- compound: "O=c1c2ccc(Cl)cc2[se]n1-c1ccncc1 [IMM-313]"
  test-system: "TA102"
  recorded-measurement: 0
- compound: "C/C(=N\\O)c1ccc(-n2[se]c3ccccc3c2=O)cc1 [IMM-065]"
  test-system: "TA102"
  recorded-measurement: 287.33
- compound: "O=c1c2cc(F)ccc2[se]n1-c1cccnc1 [IMM-128]"
  test-system: "TA102"
  recorded-measurement: 274.00

* * *

Tested on: TA98
experiment-description: Ames test, strain TA98
Format: cell-based
stated-conditions: 50 μg/dish
readout-type: TA98 +S9

- compound: "C/C(=N\\O)c1ccc(-n2[se]c3ccccc3c2=O)cc1 [IMM-065]"
  readout-type: "TA98 +S9"
  recorded-measurement: 42.00
- compound: "O=c1c2cc(F)ccc2[se]n1-c1cccnc1 [IMM-128]"
  readout-type: "TA98 +S9"
  recorded-measurement: 56.00
- compound: "O=c1c2cc(Cl)ccc2[se]n1-c1ccccn1 [IMM-004]"
  readout-type: "TA98 +S9"
  recorded-measurement: 60.67
- compound: "O=c1c2cc(F)ccc2[se]n1-c1ccccn1 [IMM-127]"
  readout-type: "TA98 +S9"
  recorded-measurement: 42.33
- compound: "O=c1c2ccc(Cl)cc2[se]n1-c1ccncc1 [IMM-313]"
  readout-type: "TA98 +S9"
  recorded-measurement: 47.33

* * *

Tested on: TA102
experiment-description: Ames test, strain TA102
Type: cell-based
stated-conditions: 50 μg/dish
yes (1) if TA102 +S9 is below 300. no (0) if not; exact matches included in no (0).

- compound: "O=c1c2cc(F)ccc2[se]n1-c1ccccn1 [IMM-127]"
  group: "yes (1)"
- compound: "O=c1c2ccc(Cl)cc2[se]n1-c1ccncc1 [IMM-313]"
  group: "yes (1)"
- compound: "C/C(=N\\O)c1ccc(-n2[se]c3ccccc3c2=O)cc1 [IMM-065]"
  group: "no (0)"
- compound: "O=c1c2cc(F)ccc2[se]n1-c1cccnc1 [IMM-128]"
  group: "no (0)"

* * *

Reported VF (ventricular fibrillation) Incidence rate (%) values for the following compounds.
Tested on: isolated rat hearts subjected to ischemia-reperfusion (I/R)
experiment-description: Isolated heart subjected to ischemia/reperfusion injury (arrhythmia)
stated-conditions: 10^−6 M; isolated heart ischemia/reperfusion
readout-type: VF (ventricular fibrillation) Incidence rate (%)

- structure-smiles-string: "C/C(=N\\O)c1ccc(-n2[se]c3ccccc3c2=O)cc1"
  output-unit: "%"
  recorded-measurement: 50
- structure-smiles-string: "O=c1c2cc(F)ccc2[se]n1-c1cccnc1"
  output-unit: "%"
  recorded-measurement: 50
- structure-smiles-string: "O=c1c2cc(F)ccc2[se]n1-c1ccncc1"
  output-unit: "%"
  recorded-measurement: 63
- structure-smiles-string: "O=c1c2cc(F)ccc2[se]n1-c1ccccn1"
  output-unit: "%"
  recorded-measurement: 38
- structure-smiles-string: "O=c1c2cc(Cl)ccc2[se]n1-c1ccncc1"
  output-unit: "%"
  recorded-measurement: 85.7

* * *

Test system: TA100
experiment-description: Ames test, strain TA100
Assay type: cell-based
stated-conditions: 5 μg/dish
TA100 −S9 below 60 gives Not met; TA100 −S9 at or above it gives Met.

- structure-smiles-string: "O=c1c2ccc(Cl)cc2[se]n1-c1ccncc1"
  test-system: "TA100"
  group: "Not met"
- structure-smiles-string: "O=c1c2cc(F)ccc2[se]n1-c1cccnc1"
  test-system: "TA100"
  group: "Met"
- structure-smiles-string: "O=c1c2cc(F)ccc2[se]n1-c1ccccn1"
  test-system: "TA100"
  group: "Met"
